# TARGET_OR_SYSTEM: CDK6/CyclinD3 (Homo sapiens)
# Sequence (Q00534 whole entry): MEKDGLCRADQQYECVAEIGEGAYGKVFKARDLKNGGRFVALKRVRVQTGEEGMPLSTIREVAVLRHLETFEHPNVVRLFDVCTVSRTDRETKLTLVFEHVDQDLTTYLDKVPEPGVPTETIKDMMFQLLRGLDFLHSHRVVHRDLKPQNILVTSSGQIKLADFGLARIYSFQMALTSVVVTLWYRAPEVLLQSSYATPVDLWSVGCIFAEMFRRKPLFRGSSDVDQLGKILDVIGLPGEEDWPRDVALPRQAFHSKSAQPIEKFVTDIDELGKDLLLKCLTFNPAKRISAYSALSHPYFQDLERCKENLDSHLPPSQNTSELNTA
# Sequence (P30281 whole entry partner): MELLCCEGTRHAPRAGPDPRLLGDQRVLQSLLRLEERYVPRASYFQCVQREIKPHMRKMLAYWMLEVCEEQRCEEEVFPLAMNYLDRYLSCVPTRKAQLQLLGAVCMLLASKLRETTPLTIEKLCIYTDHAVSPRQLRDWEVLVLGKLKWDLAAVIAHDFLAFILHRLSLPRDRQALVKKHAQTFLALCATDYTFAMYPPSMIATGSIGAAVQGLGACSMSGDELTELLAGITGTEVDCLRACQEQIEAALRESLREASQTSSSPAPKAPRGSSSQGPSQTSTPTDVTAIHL
# TEST_DETAILS: CDK6/CyclinD3 kinase inhibitory activity (Caliper mobility shift)
# SETTINGS: enzyme 15 nM, ATP 800 μM, 28° C. 30 min; read-out: CDK6/Cyclin D3 IC50
# maps each entry to its IC50

Below, 10 compounds whose answers are already recorded.
Cc1c(C(C)(C)O)cnc2c(F)cc(-c3nc(N[C@@H]4CCOC[C@H]4O)ncc3F)cc12 [Example 23]
10 to 100 nM
O[C@@H]1COCC[C@H]1Nc1ncc(Cl)c(-c2cc(F)c3ncc(-c4ncc[nH]4)cc3c2)n1 [Example 28]
100 to 1000 nM
[2H]c1nc(N[C@@H]2CCOC[C@H]2O)nc(-c2cc(F)c3nc(C)c(C(C)O)c(C)c3c2)c1Cl (single isomer, unassigned) [Example 85a]
10 to 100 nM
CNC(C)c1cc2cc(-c3nc(N[C@@H]4CCOC[C@H]4O)ncc3Cl)cc(F)c2nc1C (single isomer, unassigned) [Example 45b]
100 to 1000 nM
CNC(C)c1cc2cc(-c3nc(N[C@@H]4CCOC[C@H]4O)ncc3Cl)cc(F)c2nc1C (single isomer, unassigned) [Example 45a]
100 to 1000 nM
Cc1nc2c(cnc3ccc(-c4nc(N[C@@H]5CCOC[C@H]5O)ncc4Cl)cc32)[nH]1 [Example 10]
≥ 1000 nM
Cc1cc(C(C)(C)O)c2cc(-c3nc(N[C@@H]4CCOC[C@H]4O)ncc3F)cc(F)c2n1 [Example 76]
100 to 1000 nM
CC(O)c1cnc2c(F)cc(-c3nc(N[C@@H]4CCOC[C@H]4O)ncc3Cl)cc2c1Cl (single isomer, unassigned) [Example 40a]
100 to 1000 nM
CC1(C)NCCc2cnc3c(F)cc(-c4nc(N[C@@H]5CCOC[C@H]5O)ncc4Cl)cc3c21 [Example 109]
100 to 1000 nM
CCC(O)c1cc2cc(-c3nc(N[C@@H]4CCOC[C@H]4O)ncc3Cl)cc(F)c2nc1C (single isomer, unassigned) [Example 39b]
100 to 1000 nM

# IC50 of CC(C)(O)C1COc2c(F)cc(-c3nc(N[C@@H]4CCOC[C@H]4O)ncc3Cl)cc2C1 (some centres unmarked) [Example 46] = 100 to 1000 nM

# IC50 of Cc1nc2c(F)cc(-c3nc(N[C@@H]4CCOC[C@H]4O)ncc3F)cc2c(C)c1C(C)O (single isomer, unassigned) [Example 81b] = 10 to 100 nM

# IC50 of O[C@@H]1COCC[C@H]1Nc1ncc(F)c(-c2cc(F)c3ncc4c(c3c2)CNC2(CC2)C4)n1 [Example 56] = 100 to 1000 nM

# IC50 of Cc1n[nH]c2c1-c1cc(-c3nc(N[C@@H]4CCOC[C@H]4O)ncc3Cl)ccc1OC2 [Example 13] = 100 to 1000 nM

# IC50 of Cc1nc2c(F)cc(-c3ccnc(N[C@@H]4CCOC[C@H]4O)n3)cc2c(C)c1C(C)O (single isomer, unassigned) [Example 82a] = 100 to 1000 nM

# IC50 of CC(C)n1c(C(C)(C)O)nc2c(F)cc(-c3cc(N[C@@H]4CCOC[C@H]4O)ncc3Cl)cc21 [Example 12] = 100 to 1000 nM

# IC50 of CC(C)(O)c1cnc2c(F)cc(-c3nc(N[C@@H]4CCOC[C@H]4O)ncc3F)cc2c1Cl [Example 22] = 10 to 100 nM

# IC50 of CC(C)(O)C1COc2c(F)cc(-c3nc(N[C@@H]4CCOC[C@H]4O)ncc3Cl)cc2C1 (some centres unmarked) [Example 47] = 100 to 1000 nM

---

# TARGET_OR_SYSTEM: CDK4/CyclinD1 (Homo sapiens)
# Sequence (P11802 whole entry): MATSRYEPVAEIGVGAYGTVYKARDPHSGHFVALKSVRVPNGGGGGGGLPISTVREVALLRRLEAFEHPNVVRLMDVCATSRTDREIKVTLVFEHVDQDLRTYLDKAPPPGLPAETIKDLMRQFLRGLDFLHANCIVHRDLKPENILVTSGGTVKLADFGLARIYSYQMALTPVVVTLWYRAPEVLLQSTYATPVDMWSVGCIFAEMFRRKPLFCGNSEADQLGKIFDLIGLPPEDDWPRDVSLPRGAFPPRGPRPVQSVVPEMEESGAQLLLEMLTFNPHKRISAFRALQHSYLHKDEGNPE
# Sequence (P24385 whole entry partner): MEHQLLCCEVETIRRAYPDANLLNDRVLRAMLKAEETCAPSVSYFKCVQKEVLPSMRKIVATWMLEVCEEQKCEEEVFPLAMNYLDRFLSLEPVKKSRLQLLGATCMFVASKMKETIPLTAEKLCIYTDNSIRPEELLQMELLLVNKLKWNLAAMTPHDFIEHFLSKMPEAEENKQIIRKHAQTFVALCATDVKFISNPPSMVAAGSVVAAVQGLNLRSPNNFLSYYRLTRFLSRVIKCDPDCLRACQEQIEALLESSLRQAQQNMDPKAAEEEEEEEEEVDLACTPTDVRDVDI
# TEST_DETAILS: CDK4/CyclinD1 kinase inhibitory activity (Caliper mobility shift)
# SETTINGS: enzyme 20 nM, ATP 672 uM, 28° C. 30 min; read-out: CDK4/Cyclin D1 IC50
# maps each entry to its IC50

Below, 5 compounds whose answers are already recorded.
CNC(C)c1cnc2c(F)cc(-c3nc(N[C@@H]4CCOC[C@H]4O)ncc3Cl)cc2c1C (single isomer, unassigned) [Example 48a]
< 10 nM
CC(O)c1cnc2c(F)cc(-c3nc(N[C@@H]4CCOC[C@H]4O)ncc3Cl)cc2c1Cl (single isomer, unassigned) [Example 40b]
< 10 nM
[2H]c1nc(N[C@@H]2CCOC[C@H]2O)nc(-c2cc(F)c3nc(C)c4c(c3c2)CNC(C)(C)C4)c1F [Example 105]
< 10 nM
Cc1nc2c(F)cc(-c3ccnc(N[C@@H]4CCOC[C@H]4O)n3)cc2c2c1CC(C)(C)NC2 [Example 99]
10 to 100 nM
Cc1nc2c(F)cc(-c3nc(N[C@@H]4CCOC[C@H]4O)ncc3F)cc2cc1C(C)(C)O [Example 51]
< 10 nM

# IC50 of Cc1c(C(C)NC2CC2)cnc2c(F)cc(-c3nc(N[C@@H]4CCOC[C@H]4O)ncc3Cl)cc12 (single isomer, unassigned) [Example 91a] = 10 to 100 nM

# IC50 of CC(NC1CC1)c1cnc2c(F)cc(-c3nc(N[C@@H]4CCOC[C@H]4O)ncc3Cl)cc2c1Cl (single isomer, unassigned) [Example 90b] = < 10 nM

# IC50 of CC(NC1CC1)c1cnc2c(F)cc(-c3nc(N[C@@H]4CCOC[C@H]4O)ncc3Cl)cc2c1Cl (single isomer, unassigned) [Example 90a] = 10 to 100 nM

# IC50 of [2H]c1nc(N[C@@H]2CCOC[C@H]2O)nc(-c2cc(F)c3nc(C)c(C(C)NC4CC4)cc3c2)c1F (single isomer, unassigned) [Example 77b] = < 10 nM

# IC50 of CNC(C)c1cnc2c(F)cc(-c3nc(N[C@@H]4CCOC[C@H]4O)ncc3F)cc2c1Cl (single isomer, unassigned) [Example 64b] = 10 to 100 nM

# IC50 of CC1(C)NCc2c(cnc3c(F)cc(-c4nc(N[C@@H]5CCOC[C@H]5O)ncc4F)cc23)C1O (single isomer, unassigned) [Example 106b] = < 10 nM

# IC50 of COC1c2cnc3c(F)cc(-c4nc(N[C@@H]5CCOC[C@H]5O)ncc4F)cc3c2CNC1(C)C (single isomer, unassigned) [Example 108b] = < 10 nM

# IC50 of CC(C)(O)c1cnc2c(F)cc(-c3nc(Nc4ccc(-c5cn[nH]c5)cn4)ncc3F)cc2c1Cl [Example 55] = < 10 nM

# IC50 of Cc1c(C(C)(C)O)cnc2c(C)cc(-c3nc(N[C@@H]4CCOC[C@H]4O)ncc3Cl)cc12 [Example 58] = < 10 nM

# IC50 of [2H]C1([2H])c2cnc3c(F)cc(-c4nc(N[C@@H]5CCOC[C@H]5O)ncc4F)cc3c2CNC1(C)C [Example 110] = < 10 nM

# IC50 of [2H]c1nc2c(F)cc(-c3ccnc(N[C@@H]4CCOC[C@H]4O)n3)cc2c2c1CC(C)(C)NC2 [Example 101] = < 10 nM

# IC50 of Cc1nc2c(F)cc(-c3nc(N[C@@H]4CCOC[C@H]4O)ncc3Cl)cc2c(C)c1[C@@H](C)O (single isomer, unassigned) [Example 15a] = < 10 nM

# IC50 of CN1Cc2c(cnc3c(F)cc(-c4nc(N[C@@H]5CCOC[C@H]5O)ncc4Cl)cc23)C(O)C1(C)C (single isomer, unassigned) [Example 111a] = 10 to 100 nM

# IC50 of [2H]C([2H])([2H])C(O)(c1cc2cc(-c3nc(N[C@@H]4CCOC[C@H]4O)ncc3Cl)cc(F)c2nc1C)C([2H])([2H])[2H] [Example 60] = < 10 nM

# IC50 of CC(C)(O)c1cnc2c(F)cc(-c3nc(Nc4ccc(C(=O)CO)cn4)ncc3F)cc2c1Cl [Example 80] = 10 to 100 nM

# IC50 of CC1Cc2cnc3c(F)cc(-c4nc(N[C@@H]5CCOC[C@H]5O)ncc4Cl)cc3c2CN1 (single isomer, unassigned) [Example 34b] = < 10 nM

---

# TARGET_OR_SYSTEM: CDK4/CyclinD1 (Homo sapiens)
# TEST_DETAILS: CDK4/CyclinD1 kinase inhibitory activity (Caliper mobility shift)
# SETTINGS: enzyme 20 nM, ATP 672 uM, 28° C. 30 min; read-out: CDK4/Cyclin D1 IC50
pIC50: −log10 of the molar value.
ENDPOINT_LABEL: pIC50

Below, 4 compounds whose answers are already recorded.
Cc1[nH]cnc1-c1cnc2c(F)cc(-c3nc(N[C@@H]4CCOC[C@H]4O)ncc3Cl)cc2c1
> 8.00
CC1(C)Cc2cnc3c(F)cc(-c4ccnc(N[C@@H]5CCOC[C@H]5O)n4)cc3c2CN1
> 8.00
CNC(C)c1cc2cc(-c3nc(N[C@@H]4CCOC[C@H]4O)ncc3Cl)cc(F)c2nc1C (single isomer, unassigned) [Example 45b]
> 8.00
[2H]c1nc2c(F)cc(-c3ccnc(N[C@@H]4CCOC[C@H]4O)n3)cc2c2c1CC1(CC1)NC2
7.00 to 8.00

# pIC50 of Cc1n[nH]c2c1-c1cc(-c3nc(N[C@@H]4CCOC[C@H]4O)ncc3Cl)ccc1OC2 = 7.00 to 8.00

# pIC50 of CCC(O)c1cc2cc(-c3nc(N[C@@H]4CCOC[C@H]4O)ncc3Cl)cc(F)c2nc1C (single isomer, unassigned) [Example 39a] = > 8.00
